Experiment description: Metabolic stability in rat liver microsome after 30 mins by LC/MS/MS analysis
Assay type: ADME
Experimental parameters: liver microsomes, read-out: Stability
Please provide measured remaining at 0.5 h for the entries that follow.
Express your answer in %, writing the number without its unit.

# lookup: remaining at 0.5 h of O=C(NC[C@H](O)c1ccccc1)c1ccc(N2CCN(C(=O)c3ccccc3C(F)(F)F)CC2)nn1
92

# lookup: remaining at 0.5 h of CC(C)CCNC(=O)c1ccc(N2CCN(C(=O)c3ccccc3C(F)(F)F)CC2)nn1
57

# lookup: remaining at 0.5 h of Cc1cc(C(=O)N2CCN(c3ccc(C(=O)NCCC4CC4)nn3)CC2)c(C(F)(F)F)o1
36

# lookup: remaining at 0.5 h of O=C(NCCc1ccccc1)c1ccc(N2CCN(C(=O)c3ccccc3C(F)(F)F)CC2)nn1
56

# lookup: remaining at 0.5 h of Cc1ccc(CNC(=O)c2ccc(N3CCN(C(=O)c4ccccc4C(F)(F)F)CC3)nn2)o1
37

# lookup: remaining at 0.5 h of O=C(NCc1nccs1)c1ccc(N2CCN(C(=O)c3ccccc3C(F)(F)F)CC2)nn1
79

# lookup: remaining at 0.5 h of O=C(NCCC1CC1)c1ccc(N2CCN(C(=O)c3cccc(F)c3C(F)(F)F)CC2)nn1
72

# lookup: remaining at 0.5 h of O=C(NCc1ccccc1)c1ccc(N2CCN(C(=O)c3ccccc3C(F)(F)F)CC2)nn1
97

====

Please provide measured IC50 for the entries that follow.
Study target: Acyl-CoA desaturase 1 (Mus musculus)
Sequence (P13516 whole entry): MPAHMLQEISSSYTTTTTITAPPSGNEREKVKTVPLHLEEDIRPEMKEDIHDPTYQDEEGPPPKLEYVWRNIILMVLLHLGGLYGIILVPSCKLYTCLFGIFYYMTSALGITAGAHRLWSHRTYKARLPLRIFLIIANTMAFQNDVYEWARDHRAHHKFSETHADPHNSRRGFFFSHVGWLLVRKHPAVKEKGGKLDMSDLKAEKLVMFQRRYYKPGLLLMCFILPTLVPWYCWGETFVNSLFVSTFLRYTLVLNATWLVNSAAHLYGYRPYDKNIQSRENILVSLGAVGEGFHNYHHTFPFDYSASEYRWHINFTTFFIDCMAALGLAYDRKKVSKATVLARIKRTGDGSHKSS
Experiment description: Inhibition of SCD1 in ICR mouse liver microsome using [9,10 3H]- stearoyl-Coenzyme A substrate assessed as decreased production of tritiated water after 20 min by scintillation counting analysis
Express your answer in nM, writing the number without its unit.

# lookup: IC50 of CC(C)CCNC(=O)c1ccc(N2CCN(C(=O)c3ccccc3C(F)(F)F)CC2)nc1
78

# lookup: IC50 of CC(C(=O)N1CCN(c2ccc(C(=O)NCCC3CC3)nn2)CC1)(C(F)(F)F)C(F)(F)F
113

# lookup: IC50 of CC(CNC(=O)c1ccc(N2CCN(C(=O)c3ccccc3C(F)(F)F)CC2)nn1)c1ccccc1 (centres undefined)
150

# lookup: IC50 of O=C(NCCCc1ccccc1)c1ccc(N2CCN(C(=O)c3ccccc3C(F)(F)F)CC2)nn1
69

====

Experiment description: Apparent permeability from basolateral to apical side in human Caco2 cells
Format: ADME, cell-based
Experimental parameters: Caco-2
Measurement name: Papp B→A
Kindly report the value followed by its unit.

# lookup: Papp B→A of CCCCCCNC(=O)c1ccc(N2CCN(C(=O)c3ccccc3C(F)(F)F)CC2)nn1
18 ×10⁻⁶ cm/s

# lookup: Papp B→A of O=C(NC[C@H](O)c1ccccc1)c1ccc(N2CCN(C(=O)c3ccccc3C(F)(F)F)CC2)nn1
28 ×10⁻⁶ cm/s

# lookup: Papp B→A of O=C(Nc1ccc(Cl)cc1)c1ccc(N2CCN(C(=O)c3ccccc3C(F)(F)F)CC2)nn1
2 ×10⁻⁶ cm/s

# lookup: Papp B→A of O=C(Nc1nc2ccccc2[nH]1)c1ccc(N2CCN(C(=O)c3ccccc3C(F)(F)F)CC2)nn1
23 ×10⁻⁶ cm/s

# lookup: Papp B→A of CCCCCNC(=O)c1ccc(N2CCN(C(=O)c3ccccc3C(F)(F)F)CC2)nn1
22 ×10⁻⁶ cm/s
